// reported pIC50 per item
# Target entity: CD45 (Homo sapiens, UniProt P08575)
# Construct: incubating the cytosolic portion of CD45 with the compounds and p-nitrophenyl phosphate (pNPP); purchased BIOMOL (Plymouth Meeting, Pa.)
# Sequence (P08575 599-1306 limits assumed): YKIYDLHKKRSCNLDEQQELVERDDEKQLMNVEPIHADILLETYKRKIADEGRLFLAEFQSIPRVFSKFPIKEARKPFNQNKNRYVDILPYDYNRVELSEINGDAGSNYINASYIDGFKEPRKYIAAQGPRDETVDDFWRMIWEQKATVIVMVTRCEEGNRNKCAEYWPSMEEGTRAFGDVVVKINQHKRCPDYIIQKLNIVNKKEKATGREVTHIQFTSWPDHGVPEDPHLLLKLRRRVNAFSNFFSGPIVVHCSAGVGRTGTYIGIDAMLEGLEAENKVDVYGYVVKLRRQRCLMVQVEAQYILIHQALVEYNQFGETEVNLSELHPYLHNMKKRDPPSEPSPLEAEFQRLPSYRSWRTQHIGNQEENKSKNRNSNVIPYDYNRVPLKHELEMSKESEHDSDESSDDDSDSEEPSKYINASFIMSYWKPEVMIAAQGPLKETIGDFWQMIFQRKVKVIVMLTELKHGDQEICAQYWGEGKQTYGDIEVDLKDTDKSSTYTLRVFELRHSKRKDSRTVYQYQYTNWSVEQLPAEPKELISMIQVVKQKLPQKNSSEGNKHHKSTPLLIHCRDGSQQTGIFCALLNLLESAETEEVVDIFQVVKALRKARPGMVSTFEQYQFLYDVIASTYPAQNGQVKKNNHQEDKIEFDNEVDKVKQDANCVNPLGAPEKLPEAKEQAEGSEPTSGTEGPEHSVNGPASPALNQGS
# Assay method text: Phosphatase assay using lck 10-mer as substrate
# Format: biochemical
# Condition context: CD45 phosphatase, lck carboxy-terminal peptide TEGQpYQPQP substrate, pH 7.2; read-out: Ick IC50
pIC50: −log10 of the molar value.
Measurement name: pIC50

[
  {
    "Smiles record": "O=C(O)CNC(=O)c1ccc2c(c1)C(=O)C(=O)c1ccccc1-2",
    "Measurement name": "pIC50",
    "Qualifier operator": "=",
    "Observed result": 5.66
  },
  {
    "Smiles record": "CC(C)CNC(=O)[C@H](CCC(N)=O)NC(=O)CNC(=O)c1ccc2c(c1)-c1ccccc1C(=O)C2=O",
    "Measurement name": "pIC50",
    "Qualifier operator": "=",
    "Observed result": 5.52
  },
  {
    "Smiles record": "CC(C)(C)OC(=O)CNC(=O)c1ccc2c(c1)C(=O)C(=O)c1ccccc1-2",
    "Measurement name": "pIC50",
    "Qualifier operator": "=",
    "Observed result": 5.31
  },
  {
    "Smiles record": "O=C(Nc1ccc2c(c1)-c1ccccc1C(=O)C2=O)c1ccccc1F",
    "Measurement name": "pIC50",
    "Qualifier operator": "=",
    "Observed result": 5.22
  },
  {
    "Smiles record": "COC(=O)CCC(=O)Nc1ccc2c(c1)C(=O)C(=O)c1cccc([N+](=O)[O-])c1-2",
    "Measurement name": "pIC50",
    "Qualifier operator": "=",
    "Observed result": 5.74
  },
  {
    "Smiles record": "COC(=O)CCC(=O)Nc1ccc2c(c1)C(=O)C(=O)c1cccc(NC(=O)CCC(=O)OC)c1-2",
    "Measurement name": "pIC50",
    "Qualifier operator": "=",
    "Observed result": 5.52
  },
  {
    "Smiles record": "Cc1ccc(S(=O)(=O)N(c2ccc3c(c2)C(=O)C(=O)c2ccccc2-3)S(=O)(=O)c2ccc(C)cc2)cc1",
    "Measurement name": "pIC50",
    "Qualifier operator": "<",
    "Observed result": 4.52
  }
]
